// provenance: ChEMBL document CHEMBL4004823

Biological target: Histone-lysine N-methyltransferase EHMT1 (Homo sapiens)
Sequence (Q9H9B1 whole entry): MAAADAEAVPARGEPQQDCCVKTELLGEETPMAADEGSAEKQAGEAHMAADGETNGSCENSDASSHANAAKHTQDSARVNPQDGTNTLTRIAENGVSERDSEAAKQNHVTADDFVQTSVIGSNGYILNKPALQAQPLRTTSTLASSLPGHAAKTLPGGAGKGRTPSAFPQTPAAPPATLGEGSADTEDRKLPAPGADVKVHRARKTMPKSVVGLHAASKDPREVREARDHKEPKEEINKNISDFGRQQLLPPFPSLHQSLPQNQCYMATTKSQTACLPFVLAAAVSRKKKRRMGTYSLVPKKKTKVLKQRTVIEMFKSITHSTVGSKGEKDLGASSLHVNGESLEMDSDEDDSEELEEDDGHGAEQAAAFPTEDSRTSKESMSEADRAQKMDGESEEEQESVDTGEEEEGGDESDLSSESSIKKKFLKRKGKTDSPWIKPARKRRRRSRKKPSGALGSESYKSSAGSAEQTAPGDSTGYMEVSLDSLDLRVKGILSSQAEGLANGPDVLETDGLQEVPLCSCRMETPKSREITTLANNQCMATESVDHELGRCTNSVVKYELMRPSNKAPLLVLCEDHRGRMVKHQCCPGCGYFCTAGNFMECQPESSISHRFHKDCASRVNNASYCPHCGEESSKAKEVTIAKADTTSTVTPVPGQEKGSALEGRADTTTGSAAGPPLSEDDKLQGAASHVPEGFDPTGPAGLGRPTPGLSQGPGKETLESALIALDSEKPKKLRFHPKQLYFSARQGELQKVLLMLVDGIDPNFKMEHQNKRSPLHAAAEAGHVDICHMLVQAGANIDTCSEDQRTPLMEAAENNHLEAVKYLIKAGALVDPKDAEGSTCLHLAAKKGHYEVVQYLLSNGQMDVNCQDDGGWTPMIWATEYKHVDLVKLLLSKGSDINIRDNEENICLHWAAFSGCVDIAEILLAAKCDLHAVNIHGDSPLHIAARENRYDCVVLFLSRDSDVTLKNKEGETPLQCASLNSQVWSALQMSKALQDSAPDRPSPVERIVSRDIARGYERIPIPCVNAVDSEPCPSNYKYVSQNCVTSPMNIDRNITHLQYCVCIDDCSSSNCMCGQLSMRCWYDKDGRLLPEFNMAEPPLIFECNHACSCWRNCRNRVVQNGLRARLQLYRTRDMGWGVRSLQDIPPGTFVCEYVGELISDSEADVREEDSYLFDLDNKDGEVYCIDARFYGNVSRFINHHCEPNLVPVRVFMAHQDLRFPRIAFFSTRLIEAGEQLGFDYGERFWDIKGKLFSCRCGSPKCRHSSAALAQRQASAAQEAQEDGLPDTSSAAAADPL
Assay: Inhibition of recombinant GLP catalytic SET domain (982 to 1266 residues) (unknown origin) expressed in Escherichia coli BL21 (DE3) codon plus RIL assessed as inhibition of methylation activity using biotin-labeled H3 (1 to 25 residues) as substrate and [3H]-SAM after 2 hrs by scintillation proximity assay
MEASUREMENT LABEL: IC50 (nM)

(A) COc1cc2nc(N3CCOCC3)nc(NC3CCN(C)CC3)c2cc1OC
(B) CCCCCNc1nc(NC2CCN(C)CC2)c2cc(OC)c(OC)cc2n1
(C) COc1cc2nc(N3CCC(F)(F)CC3)nc(NC3CCN(C)CC3)c2cc1OC
(D) COc1cc2c(NC3CCN(C)CC3)nc(N3CCOCC3)nc2cc1C
Problem: Lab note: IC50 ranking, ascending, for the listed molecules. Put the labels in the requested order and write them down.
Solution: A, D, B, C
